Where do the numbers come from? From patent US20260263521A1.

- target: T1, human CD200R1 expressed on cells (Jurkat-CD200R1, U937-CD200R1, HH cells) (human, UniProt Q8TD46 25-348)
- T1 construct: whole, on cells; also called HH (CRL-2105); cell surface-expressed CD200R1
- T1 sequence (looked up): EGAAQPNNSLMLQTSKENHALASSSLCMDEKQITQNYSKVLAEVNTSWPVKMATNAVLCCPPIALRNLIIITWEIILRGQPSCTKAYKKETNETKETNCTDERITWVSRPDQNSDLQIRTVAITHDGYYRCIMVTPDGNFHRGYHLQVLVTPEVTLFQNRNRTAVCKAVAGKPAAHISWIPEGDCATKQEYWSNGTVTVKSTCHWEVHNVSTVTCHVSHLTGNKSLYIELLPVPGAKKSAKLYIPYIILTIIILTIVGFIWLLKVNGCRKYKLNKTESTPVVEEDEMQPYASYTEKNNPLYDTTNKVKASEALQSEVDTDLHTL
- protocol.notes: flow cytometry, HH cells; drawn table
Geo mean (%) at 0.19 nM for assorted binders
Write the answer as a number in %, unit excluded.

In the examples that follow, each entry is paired with its recorded Geo mean (%) at 0.19 nM.
[[record]]
binder = "P001018 (huOX108.1) (antibody, V domains shown, also called humanized antibody P001018) VH: QVQLVQSGAEVKKPGASVKVSCKASGYTFTSYVMHWVRQAPGQGLEWMGYINPYNDDTNYNEKFKGRVTMTRDTSTSTVYMELSSLRSEDTAVYYCAREDYYGSRWGYWGQGTLVTVSS VL: DIVLTQSPASLAVSPGQRATITCRASKSVSTSGYSYMHWYQQKPGQPPKLLIYLASNLESGVPARFSGSGSGTDFTLTINPVEANDTANYYCQHSRELLTFGQGTKVEIK"
readout_value = 6.1

[[record]]
binder = "P001018 scFv mutant L3-T96R (scFv) scFv: QVQLVQSGAEVKKPGASVKVSCKASGYTFTSYVMHWVRQAPGQGLEWMGYINPYNDDTNYNEKFKGRVTMTRDTSTSTVYMELSSLRSEDTAVYYCAREDYYGSRWGYWGQGTLVTVSSGGGGSGGGGSGGGGSDIVLTQSPASLAVSPGQRATITCRASKSVSTSGYSYMHWYQQKPGQPPKLLIYLASNLESGVPARFSGSGSGTDFTLTINPVEANDTANYYCQHSRELLRFGQGTKVEIK"
readout_value = 7.5

[[record]]
binder = "P001018 scFv mutant L3-L95D (scFv) scFv: QVQLVQSGAEVKKPGASVKVSCKASGYTFTSYVMHWVRQAPGQGLEWMGYINPYNDDTNYNEKFKGRVTMTRDTSTSTVYMELSSLRSEDTAVYYCAREDYYGSRWGYWGQGTLVTVSSGGGGSGGGGSGGGGSDIVLTQSPASLAVSPGQRATITCRASKSVSTSGYSYMHWYQQKPGQPPKLLIYLASNLESGVPARFSGSGSGTDFTLTINPVEANDTANYYCQHSRELDTFGQGTKVEIK"
readout_value = 5.6

[[record]]
binder = "P001018 scFv mutant L3-L94H (scFv) scFv: QVQLVQSGAEVKKPGASVKVSCKASGYTFTSYVMHWVRQAPGQGLEWMGYINPYNDDTNYNEKFKGRVTMTRDTSTSTVYMELSSLRSEDTAVYYCAREDYYGSRWGYWGQGTLVTVSSGGGGSGGGGSGGGGSDIVLTQSPASLAVSPGQRATITCRASKSVSTSGYSYMHWYQQKPGQPPKLLIYLASNLESGVPARFSGSGSGTDFTLTINPVEANDTANYYCQHSREHLTFGQGTKVEIK"
readout_value = 5.6

[[record]]
binder = "P001018 scFv mutant L3-L94S (scFv) scFv: QVQLVQSGAEVKKPGASVKVSCKASGYTFTSYVMHWVRQAPGQGLEWMGYINPYNDDTNYNEKFKGRVTMTRDTSTSTVYMELSSLRSEDTAVYYCAREDYYGSRWGYWGQGTLVTVSSGGGGSGGGGSGGGGSDIVLTQSPASLAVSPGQRATITCRASKSVSTSGYSYMHWYQQKPGQPPKLLIYLASNLESGVPARFSGSGSGTDFTLTINPVEANDTANYYCQHSRESLTFGQGTKVEIK"
readout_value = 5.9


Then this binder:
Problem: Recorded Geo mean (%) at 0.19 nM for P001018 scFv mutant H3-Y102K (scFv) scFv: QVQLVQSGAEVKKPGASVKVSCKASGYTFTSYVMHWVRQAPGQGLEWMGYINPYNDDTNYNEKFKGRVTMTRDTSTSTVYMELSSLRSEDTAVYYCAREDYYGSRWGKWGQGTLVTVSSGGGGSGGGGSGGGGSDIVLTQSPASLAVSPGQRATITCRASKSVSTSGYSYMHWYQQKPGQPPKLLIYLASNLESGVPARFSGSGSGTDFTLTINPVEANDTANYYCQHSRELLTFGQGTKVEIK , please?
Result: 6.1
